Target: wild-type FLT3 receptor (Homo sapiens)
Sequence (P36888 27-993): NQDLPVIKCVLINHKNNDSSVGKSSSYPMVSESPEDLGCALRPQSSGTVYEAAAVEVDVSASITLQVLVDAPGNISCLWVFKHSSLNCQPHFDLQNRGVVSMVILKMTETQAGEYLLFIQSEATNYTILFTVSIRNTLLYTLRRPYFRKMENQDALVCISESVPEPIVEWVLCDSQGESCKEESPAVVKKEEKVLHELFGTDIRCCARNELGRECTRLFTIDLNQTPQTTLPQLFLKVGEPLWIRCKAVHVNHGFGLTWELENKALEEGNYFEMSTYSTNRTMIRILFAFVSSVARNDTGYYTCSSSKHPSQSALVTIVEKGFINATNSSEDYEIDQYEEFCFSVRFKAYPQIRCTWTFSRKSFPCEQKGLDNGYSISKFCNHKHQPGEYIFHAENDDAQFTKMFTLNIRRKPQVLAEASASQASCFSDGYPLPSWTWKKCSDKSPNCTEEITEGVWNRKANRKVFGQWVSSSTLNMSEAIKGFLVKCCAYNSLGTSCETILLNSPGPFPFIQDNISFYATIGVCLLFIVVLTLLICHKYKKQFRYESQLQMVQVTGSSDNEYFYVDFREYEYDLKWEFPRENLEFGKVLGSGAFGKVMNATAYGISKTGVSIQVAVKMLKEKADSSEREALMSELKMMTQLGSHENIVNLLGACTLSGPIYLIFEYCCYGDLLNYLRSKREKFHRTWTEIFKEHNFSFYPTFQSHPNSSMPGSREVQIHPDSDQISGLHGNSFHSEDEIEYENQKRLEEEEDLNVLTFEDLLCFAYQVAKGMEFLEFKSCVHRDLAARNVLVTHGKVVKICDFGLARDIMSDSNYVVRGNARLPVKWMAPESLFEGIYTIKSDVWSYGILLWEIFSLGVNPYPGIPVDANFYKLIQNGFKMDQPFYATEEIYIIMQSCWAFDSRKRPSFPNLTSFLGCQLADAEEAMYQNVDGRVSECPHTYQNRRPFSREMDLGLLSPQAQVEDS
Experiment: Cell-based FLT3 receptor ELISA (FLT ligand-induced phosphorylation in Baf3 FLT3 cells)
Conditions: 100 ng/mL Flt ligand, uncertainty ±20%
The label is Yes for IC50 below 80 nM and No for IC50 equal to or exceeding 80 nM.

>>> group_label("CNC(=O)C1CCN(c2ccc3c(C4CCN(C(=O)Nc5ccc(N6CCCC6)cc5)CC4)ncnc3c2)CC1")
"Yes"
>>> group_label("O=C(Nc1ccc(N2CCCC2)nc1)N1CCC(c2ncnc3cc(OCCN4CCOCC4)ccc23)CC1")
"Yes"
>>> group_label("O=C(Nc1ccc(N2CCOCC2)cc1)N1CCC(c2ncnc3cc(OCCN4CCC[C@H]4CO)ccc23)CC1")
"No"
>>> group_label("O=C(Nc1ccc(N2CCOCC2)cc1)N1CCC(c2ncnc3cc(OCCN4CCOC4=O)ccc23)CC1")
"No"
>>> group_label("COc1cc2ncnc(C3CCN(C(=O)Nc4ccc(C5=CCN(C(=O)OC(C)(C)C)CC5)cc4)CC3)c2cc1OC")
"No"
>>> group_label("COc1cc2ncnc(C3CCN(CC(=O)Nc4ccc(OC(C)C)cc4)CC3)c2cc1OC")
"Yes"
